Hello, the source for this data is PubChem BioAssay, in case you need it.

- protocol description: endothelial E-selectin expression blockers – imaging, HUVEC, immunofluorescence, MLSMR starter and 10KST1 sets, primary screen (AID 487);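 note: signal is fraction of cell area covered by stained E-selectin grains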
- experimental context: HUVEC TNFalpha-induced E-selectin immunofluorescence imaging, at 2 µM; stronger effect = higher value
inhibition vs -30%: at or above is 1 (yes), below is 0 (no).

Answered cases to consult:
CC(=O)Nc1c(I)c(NC(C)=O)c(I)c(C(=O)O)c1I    0 (no)
CNC(=O)Oc1ccc2c(c1)[C@]1(C)CCN(C)[C@@H]1N2C    1 (yes)
COc1ccc(-c2noc(CCC(=O)NCCCN3CCC(Cc4ccccc4)CC3)n2)cc1    0 (no)
CCn1cc(C(=O)Nc2cc3c(cc2NC(C)=O)OCCO3)c(=O)c2ccc(C)nc21    0 (no)
O=C(NCc1ccccn1)c1ccc2nc(-c3ccco3)c(-c3ccco3)nc2c1    0 (no)

Asked: Is the recorded value of inhibition equal to or greater than -30% for this compound? Cc1cc(S(=O)(=O)n2cnc3ccccc32)c(C)cc1Cl
Given back: 1 (yes)

Asked: Is the recorded value of inhibition equal to or greater than -30% for this compound? COc1ccccc1C(=O)Nc1ccc(S(=O)(=O)N2CCOCC2)cc1
Given back: 0 (no)

Asked: Is the recorded value of inhibition equal to or greater than -30% for this compound? Brc1ccc(C2=Nn3c(nnc3-c3ccncc3)SC2)cc1
Given back: 1 (yes)

* * *

- protocol description: endothelial E-selectin expression blockers – imaging, HUVEC, immunofluorescence, MLSMR starter and 10KST1 sets, primary screen (AID 487);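 note: signal is fraction of cell area covered by stained E-selectin grains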
- experimental context: HUVEC TNFalpha-induced E-selectin immunofluorescence imaging, at 2 µM; stronger effect = higher value
inhibition vs -40%: at or above is Met, below is Not met.

Answered cases to consult:
COC(=O)Cc1c(C)nc2nc(-c3ccccc3)[nH]n2c1=O    Met
CCn1c(=N)n(CC(=O)C23CC4CC(CC(C4)C2)C3)c2ccccc21    Not met
O=C(Nc1ncnc2sc3c(c12)CCCCC3)c1ccco1    Met
CCN(CC)CCNC(=O)c1ccc(N)cc1    Not met
Cc1cccc(-c2noc(CCC(=O)Nc3ccccc3)n2)c1    Met

Asked: Is the recorded value of inhibition equal to or greater than -40% for this molecule? Cc1ccc2nc(SC(C)C(=O)N3CCCC3)[nH]c2c1 (centres undefined)
Given back: Not met

Asked: Is the recorded value of inhibition equal to or greater than -40% for this molecule? COc1ccc(-n2c(SCC(=O)Nc3ccc(C(=O)O)cc3)nnc2-c2cccs2)cc1
Given back: Not met

Asked: Is the recorded value of inhibition equal to or greater than -40% for this molecule? Cc1cccc(-n2nnc(C(=O)NCc3ccccc3)c2N)c1
Given back: Met

Asked: Is the recorded value of inhibition equal to or greater than -40% for this molecule? O=C(COc1ncnc2ccccc12)NCc1ccc2c(c1)OCO2
Given back: Met

Asked: Is the recorded value of inhibition equal to or greater than -40% for this molecule? CCOC(=O)c1cnn(-c2ncnc3c2cnn3Cc2ccccc2)c1N
Given back: Met

Asked: Is the recorded value of inhibition equal to or greater than -40% for this molecule? ON1C2CCCCC2N(O)C1c1c(F)c(F)c(F)c(F)c1F (centres undefined)
Given back: Not met

Asked: Is the recorded value of inhibition equal to or greater than -40% for this molecule? Cc1noc(C)c1C(=O)OCC(=O)Nc1ccccc1C(=O)NC(C)c1ccccc1 (centres undefined)
Given back: Not met

Asked: Is the recorded value of inhibition equal to or greater than -40% for this molecule? COc1cccc(OCCOCCN(C)CCO)c1
Given back: Met

Asked: Is the recorded value of inhibition equal to or greater than -40% for this molecule? COc1ccc(CNC(=O)Cn2nc(C(F)(F)F)c3c2CCC3)cc1
Given back: Not met

Asked: Is the recorded value of inhibition equal to or greater than -40% for this molecule? COc1ccccc1N1CCN(C(=O)c2ccc3nc(-c4ccco4)c(-c4ccco4)nc3c2)CC1
Given back: Not met

Asked: Is the recorded value of inhibition equal to or greater than -40% for this molecule? Cc1ccc(C2C(C#N)=C(N)Oc3cc4c(cc32)OCO4)cc1 (centres undefined)
Given back: Met

Asked: Is the recorded value of inhibition equal to or greater than -40% for this molecule? CCOc1ccc2nc(S(N)(=O)=O)sc2c1
Given back: Met

Asked: Is the recorded value of inhibition equal to or greater than -40% for this molecule? CCNc1nc(NCC)n2c(SCc3nc4ccccc4c(=O)[nH]3)nnc2n1
Given back: Met

Asked: Is the recorded value of inhibition equal to or greater than -40% for this molecule? COc1ccc(NC(=O)CCCN2C(=O)C3C4C=CC(C4)C3C2=O)c(OC)c1 (centres undefined)
Given back: Met
